pIC50: −log10 of the molar value. Where a name gives a salt, the structure may show the parent alone.
Read-out record for IMP-1 (Serratia marcescens, UniProt P52699): pIC50

{"Compound": "NC[C@@H](O)CNS(=O)(=O)c1ccc(N2CCC[C@@H](NCCO)C2)c(-c2nn[nH]n2)c1S(N)(=O)=O [Example 130, trifluoroacetate]", "pIC50": 6.89}
{"Compound": "NC[C@@H](O)CNS(=O)(=O)c1ccc(N2CCC3CNCC3C2)c(-c2nnn[nH]2)c1S(N)(=O)=O (stereo partly shown)", "pIC50": 7.92}
{"Compound": "NCCS(=O)(=O)c1ccc(N2CCCCC2)c(-c2nnn[nH]2)c1S(N)(=O)=O", "pIC50": 8.87}
{"Compound": "NS(=O)(=O)c1c(S(=O)(=O)N[C@@H]2CCNC2)ccc(N2CCCC(=NO)C2=O)c1-c1nn[nH]n1", "pIC50": 8.17}

* * *

- Tested on: P. aeruginosa MB9798 (efflux+, IMP-1 plasmid)
- Condition: efflux + (MB9798) strain; imipenem at 2 μg/mL; in the presence of a class A, C, D serine β-lactamase inhibitor closely related to relebactam
- Description: The strain background is Pseudomonas aeruginosa PAO1. A wild-type (M135919) and an isogenic strain in which multiple efflux pumps have been disrupted genetically were used. The MBL IMP-1, obtained from a clinical isolate was introduced into the strain pair by the following process: The plasmid DNA was transformed into parental MB5919 (oprD+, efflux+, inducible AmpC) and MB5890 (oprD+, efflux−, inducible AmpC) isogenic strains by electroporation. […]
// MB9798 MITC95 P. aeruginosa uM Efflux WT lookup, one value per entry

{"Compound": "NS(=O)(=O)c1c(S(=O)(=O)C2CNC2)ccc(N2CCC3(CCNCC3)CC2)c1-c1nnn[nH]1 [Example 30]", "MB9798 MITC95 P. aeruginosa uM Efflux WT (µM)": 1.56}
{"Compound": "NC[C@@H](O)CNS(=O)(=O)c1ccc(N2CCC(C3COC(=O)N3)CC2)c(-c2nn[nH]n2)c1S(N)(=O)=O (stereo partly shown) [Example 177]", "MB9798 MITC95 P. aeruginosa uM Efflux WT (µM)": 1.56}
{"Compound": "NC[C@@H](O)CNS(=O)(=O)c1ccc(N[C@@H]2CCC[C@H]2N)c(-c2nn[nH]n2)c1S(N)(=O)=O [Example 179]", "MB9798 MITC95 P. aeruginosa uM Efflux WT (µM)": 25.00}
{"Compound": "NS(=O)(=O)c1c(S(=O)(=O)N[C@@H]2CCNC2)ccc(N2CCN(CCCO)CC2)c1-c1nnn[nH]1 [Example 93]", "MB9798 MITC95 P. aeruginosa uM Efflux WT (µM)": 3.13}
{"Compound": "NS(=O)(=O)c1c(S(=O)(=O)N[C@@H]2CCNC2)ccc(N2CCN(CCO)CC2)c1-c1nn[nH]n1 [Example 162]", "MB9798 MITC95 P. aeruginosa uM Efflux WT (µM)": 2.34}
{"Compound": "COC1(CO)CCN(c2ccc(S(=O)(=O)N[C@H](C)CN)c(S(N)(=O)=O)c2-c2nn[nH]n2)CC1 [Example 19]", "MB9798 MITC95 P. aeruginosa uM Efflux WT (µM)": 3.13}
{"Compound": "NS(=O)(=O)c1c(S(=O)(=O)N[C@@H]2CCNC2)ccc(N2CC3(CCNCC3)C2)c1-c1nnn[nH]1 [Example 113]", "MB9798 MITC95 P. aeruginosa uM Efflux WT (µM)": 6.25}
